- Tested on: ovarian cancer cells OVCAR3
- ASSAY_NOTES: Cell anti-proliferation experiment, MTT (Table 4)
- Format: cell-based, human
- CONDITION_DESCRIPTION: incubate 3 days
MEASURED_METRIC: IC50

Q. Param item = CC1(C)CC[C@H](Nc2ncc(C(F)(F)F)c(-n3cnc4c(P(C)(C)=O)c(C#N)ccc43)n2)CN1 [Example 31] ; retrieve measured IC50.
A. 10 to 500 nM

* * *

Quick reference for pIC50 among some compounds
- ASSAY_TARGET: CDK12 (aa686-1082)/Cyclin K (Homo sapiens (Human))
- Sequence (Q9NYV4 686-1082): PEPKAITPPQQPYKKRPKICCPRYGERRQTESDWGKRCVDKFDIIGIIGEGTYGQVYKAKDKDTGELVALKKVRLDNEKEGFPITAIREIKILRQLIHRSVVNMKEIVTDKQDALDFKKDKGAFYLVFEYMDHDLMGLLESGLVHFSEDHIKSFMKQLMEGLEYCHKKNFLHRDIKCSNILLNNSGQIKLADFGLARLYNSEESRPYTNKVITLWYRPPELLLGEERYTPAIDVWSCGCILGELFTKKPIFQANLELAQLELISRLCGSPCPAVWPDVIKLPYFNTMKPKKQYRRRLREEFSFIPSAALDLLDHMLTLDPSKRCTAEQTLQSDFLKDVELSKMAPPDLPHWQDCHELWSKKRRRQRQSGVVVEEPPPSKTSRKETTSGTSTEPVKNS
- Sequence (O75909 whole entry partner, the tested form may be a part): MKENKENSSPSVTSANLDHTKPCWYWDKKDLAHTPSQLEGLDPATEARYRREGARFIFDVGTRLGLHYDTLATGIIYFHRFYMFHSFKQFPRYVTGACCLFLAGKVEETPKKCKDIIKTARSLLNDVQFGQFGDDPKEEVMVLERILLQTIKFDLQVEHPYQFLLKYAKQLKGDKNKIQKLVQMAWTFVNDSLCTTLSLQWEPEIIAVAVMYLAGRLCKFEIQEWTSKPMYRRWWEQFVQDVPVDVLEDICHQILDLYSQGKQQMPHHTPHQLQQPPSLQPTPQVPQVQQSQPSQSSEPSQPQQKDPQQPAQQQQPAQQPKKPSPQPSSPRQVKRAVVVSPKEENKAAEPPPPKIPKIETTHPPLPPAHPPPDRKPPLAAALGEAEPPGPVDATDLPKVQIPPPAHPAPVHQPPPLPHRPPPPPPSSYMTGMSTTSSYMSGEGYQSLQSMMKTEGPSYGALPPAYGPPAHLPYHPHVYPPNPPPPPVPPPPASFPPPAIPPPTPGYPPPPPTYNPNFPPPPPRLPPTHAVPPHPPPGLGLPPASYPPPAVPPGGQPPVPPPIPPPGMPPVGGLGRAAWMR
- ASSAY_NOTES: Enzyme activity test, mobility shift assay (Table 1)
- Assay type: biochemical
- CONDITION_DESCRIPTION: 2 mM ATP; read-out: CDK12 kinase IC50
pIC50: −log10 of the molar value.

Here's what some known entries look like.
COC(=O)Nc1ccc2c(-c3nc(N[C@H]4CCCN(C)C4)ncc3C(F)(F)F)c[nH]c2c1Cl	< 6.30
CCOC(=O)Nc1ccc2c(-c3nc(N[C@H]4CCCNC4)ncc3C(F)(F)F)c[nH]c2c1C1CC1	< 6.30
COC(=O)Nc1ccc2c(-c3nc(N[C@H]4CCCNC4)ncc3C(F)(F)F)c[nH]c2c1S(=O)(=O)C(C)C	< 6.30

Q. Param item = COC(=O)Nc1ccc2c(-c3nc(N[C@H]4CCC(C)(C)NC4)ncc3C(F)(F)F)c[nH]c2c1S(=O)(=O)C(C)C ; retrieve measured pIC50.
A. < 6.30

* * *

Quick reference for IC50 among some molecules
- ASSAY_TARGET: CDK7/Cyclin H/MAT1 kinase (Homo sapiens (Human), UniProt P50613)
- Sequence (P50613 whole entry): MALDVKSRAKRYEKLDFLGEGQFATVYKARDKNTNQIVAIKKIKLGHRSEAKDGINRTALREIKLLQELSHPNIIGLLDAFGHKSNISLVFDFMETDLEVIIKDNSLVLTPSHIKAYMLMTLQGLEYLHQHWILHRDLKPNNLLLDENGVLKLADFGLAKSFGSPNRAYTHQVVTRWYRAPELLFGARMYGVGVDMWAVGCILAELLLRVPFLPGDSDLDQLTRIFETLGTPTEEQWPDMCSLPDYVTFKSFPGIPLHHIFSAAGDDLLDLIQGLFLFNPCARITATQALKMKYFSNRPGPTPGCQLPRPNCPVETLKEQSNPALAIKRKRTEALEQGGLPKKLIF
- Sequence (P51946 whole entry partner): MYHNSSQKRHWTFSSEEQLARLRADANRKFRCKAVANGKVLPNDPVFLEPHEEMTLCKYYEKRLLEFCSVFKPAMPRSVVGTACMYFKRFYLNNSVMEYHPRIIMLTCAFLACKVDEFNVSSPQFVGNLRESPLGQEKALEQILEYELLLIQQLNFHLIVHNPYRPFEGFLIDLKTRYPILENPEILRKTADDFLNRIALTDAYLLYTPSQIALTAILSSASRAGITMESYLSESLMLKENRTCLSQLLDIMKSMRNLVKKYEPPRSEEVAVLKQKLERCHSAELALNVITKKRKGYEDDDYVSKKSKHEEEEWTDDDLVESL
- Sequence (P51948 whole entry partner): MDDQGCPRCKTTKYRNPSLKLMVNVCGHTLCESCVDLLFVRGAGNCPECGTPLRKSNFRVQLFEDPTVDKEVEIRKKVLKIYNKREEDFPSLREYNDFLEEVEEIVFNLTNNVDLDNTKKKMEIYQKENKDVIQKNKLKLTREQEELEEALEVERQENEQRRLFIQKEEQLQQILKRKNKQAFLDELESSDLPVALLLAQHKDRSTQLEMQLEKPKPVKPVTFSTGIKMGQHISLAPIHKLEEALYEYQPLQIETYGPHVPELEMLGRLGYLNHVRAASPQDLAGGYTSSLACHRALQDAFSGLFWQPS
- ASSAY_NOTES: Enzyme activity test, mobility shift assay (Table 1)
- Type: biochemical
- CONDITION_DESCRIPTION: 2 mM ATP; pre-incubated 0 and 60 minutes

Here's what some known entries look like.
COC(=O)Nc1ccc2c(-c3nc(N[C@H]4CCC[C@H](N)C4)ncc3C(F)(F)F)c[nH]c2c1Br	50 to 500 nM
COC(=O)Nc1ccc2c(-c3nc(NC4CC5(CC(N)C5)C4)ncc3C(F)(F)F)c[nH]c2c1Br (centres unmarked)	< 50 nM
O=C(Nc1ccc2c(-c3nc(N[C@H]4CCCNC4)ncc3C(F)(F)F)c[nH]c2c1)C1CC1	< 50 nM

Q. Param item = COC(=O)Nc1ccc2c(-c3nc(N[C@H]4CCC(C)(C)NC4)ncc3C(F)(F)F)c[nH]c2c1C(F)(F)F ; retrieve measured IC50.
A. < 50 nM

Q. Param item = COC(=O)Nc1ccc2c(-c3nc(N[C@H]4CC[C@@H](C)NC4)ncc3C(F)(F)F)c[nH]c2c1Br ; retrieve measured IC50.
A. 50 to 500 nM

Q. Param item = COC(=O)Nc1ccc2c(-c3nc(N[C@H]4CCCNC4)ncc3C(F)(F)F)c[nH]c2c1Cl ; retrieve measured IC50.
A. < 50 nM

* * *

- ASSAY_TARGET: CDK7/Cyclin H/MAT1 kinase (Homo sapiens (Human))
- ASSAY_NOTES: Enzyme activity test, mobility shift assay (Table 1)
- Type: biochemical
- CONDITION_DESCRIPTION: 2 mM ATP; pre-incubated 0 and 60 minutes
pIC50: −log10 of the molar value.
MEASURED_METRIC: pIC50

COC(=O)Nc1ccc2c(-c3nc(N[C@H]4CC[C@H](N)C4)ncc3C(F)(F)F)c[nH]c2c1Br [Example T-54]	6.30 to 7.30

Q. Param item = O=C1CCCN1c1ccc2c(-c3nc(N[C@H]4CCCNC4)ncc3C(F)(F)F)c[nH]c2c1 [Example T-13] ; retrieve measured pIC50.
A. > 7.30

Q. Param item = COC(=O)Nc1ccc2c(-c3nc(N[C@H]4CC[C@H](C)NC4)ncc3C(F)(F)F)c[nH]c2c1Cl [Example T-147] ; retrieve measured pIC50.
A. 6.30 to 7.30

Q. Param item = COC(=O)Nc1ccc2c(-c3nc(O[C@H]4CCCNC4)ncc3C(F)(F)F)c[nH]c2c1Br [Example T-02] ; retrieve measured pIC50.
A. 6.30 to 7.30

* * *

Quick reference for pIC50 among some compounds
- ASSAY_TARGET: CDK7/Cyclin H/MAT1 kinase (Homo sapiens (Human))
- ASSAY_NOTES: Enzyme activity test, mobility shift assay (Table 1)
- Assay type: biochemical
- CONDITION_DESCRIPTION: 2 mM ATP; pre-incubated 0 and 60 minutes
- Protocol: IC50 values of the compounds for CDK7 kinase were detected in Wuxi Biortus Biosciences Co. Ltd. The compound powder was dissolved in 100% DMSO to prepare a 10 mM storage solution. The storage solution was further diluted to 0.5 mM as the initial concentration, and continuously diluted 3 times to obtain 10 compound solutions with different concentrations. The compound and enzyme were pre-incubated for 0 minutes and 60 minutes, respectively, using duplicate detection. […]
pIC50: −log10 of the molar value.

Here's what some known entries look like.
COC(=O)Nc1ccc2c(-c3nc(NC4CC5CNCC5C4)ncc3C(F)(F)F)c[nH]c2c1Br (stereo not drawn) [Example T-28]	6.30 to 7.30
COC(=O)Nc1ccc2c(-c3nc(N[C@H]4CCC(C)(C)NC4)ncc3C(F)(F)F)c[nH]c2c1S(=O)(=O)C(C)C [Example T-64]	> 7.30
COC(=O)Nc1ccc2c(-c3nc(N[C@H]4CCCNC4)ncc3C(F)(F)F)c[nH]c2c1OCC(F)(F)F [Example T-139]	> 7.30

Q. API: value(readout=pIC50, system=CDK7/Cyclin H/MAT1 kinase (Homo sapiens (Human))) for record COC(=O)Nc1ccc2c(-c3nc(N[C@H]4CCNC4)ncc3C(F)(F)F)c[nH]c2c1Br [Example T-39]
A. 6.30 to 7.30

Q. API: value(readout=pIC50, system=CDK7/Cyclin H/MAT1 kinase (Homo sapiens (Human))) for record COC(=O)Nc1ccc2c(-c3nc(N[C@@H]4CCC[C@H](N)C4)ncc3C(F)(F)F)c[nH]c2c1Br [Example T-22]
A. 6.30 to 7.30

* * *

- ASSAY_TARGET: CDK9/Cyclin Tl (Homo sapiens (Human), UniProt P50750)
- Sequence (P50750 whole entry): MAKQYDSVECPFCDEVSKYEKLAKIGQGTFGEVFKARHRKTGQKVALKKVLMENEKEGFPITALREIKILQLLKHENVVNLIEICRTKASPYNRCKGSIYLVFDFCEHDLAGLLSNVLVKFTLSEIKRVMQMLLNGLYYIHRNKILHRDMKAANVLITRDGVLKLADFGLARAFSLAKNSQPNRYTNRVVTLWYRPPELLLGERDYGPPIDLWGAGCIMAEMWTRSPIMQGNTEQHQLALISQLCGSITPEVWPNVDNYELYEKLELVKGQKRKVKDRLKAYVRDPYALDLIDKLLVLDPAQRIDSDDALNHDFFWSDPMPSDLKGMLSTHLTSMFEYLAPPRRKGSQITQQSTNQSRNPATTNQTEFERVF
- Sequence (O60563 whole entry partner): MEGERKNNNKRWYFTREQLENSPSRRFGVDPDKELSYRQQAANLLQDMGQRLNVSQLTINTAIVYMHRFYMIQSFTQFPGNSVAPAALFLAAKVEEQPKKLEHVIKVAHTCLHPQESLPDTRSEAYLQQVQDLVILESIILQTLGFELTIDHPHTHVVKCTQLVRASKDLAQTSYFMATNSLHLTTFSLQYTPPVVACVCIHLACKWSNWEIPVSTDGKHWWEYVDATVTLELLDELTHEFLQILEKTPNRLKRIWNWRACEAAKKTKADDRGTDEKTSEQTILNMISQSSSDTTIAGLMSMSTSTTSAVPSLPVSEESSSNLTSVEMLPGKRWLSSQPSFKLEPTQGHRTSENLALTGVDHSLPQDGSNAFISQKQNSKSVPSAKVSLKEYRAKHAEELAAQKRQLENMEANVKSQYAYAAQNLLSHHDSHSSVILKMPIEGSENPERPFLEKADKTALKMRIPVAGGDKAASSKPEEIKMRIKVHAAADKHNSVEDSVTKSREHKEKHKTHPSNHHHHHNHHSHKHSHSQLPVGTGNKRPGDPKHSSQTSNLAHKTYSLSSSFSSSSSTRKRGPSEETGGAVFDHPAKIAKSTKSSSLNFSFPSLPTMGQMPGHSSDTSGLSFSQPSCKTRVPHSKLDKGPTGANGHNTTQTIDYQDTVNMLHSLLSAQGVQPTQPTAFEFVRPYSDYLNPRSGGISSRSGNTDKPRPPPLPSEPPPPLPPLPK
- ASSAY_NOTES: Enzyme activity test, mobility shift assay (Table 1)
- CONDITION_DESCRIPTION: 2 mM ATP; read-out: CDK9 kinase IC50
Quick reference for IC50 among some molecules

O=C1OCCN1c1ccc2c(-c3nc(N[C@H]4CCCNC4)ncc3C(F)(F)F)c[nH]c2c1Br	> 500 nM
COC(=O)Nc1ccc2c(-c3nc(N[C@H]4CCCNC4)ncc3C(F)(F)F)c[nH]c2c1-c1ccccc1	> 500 nM

Let us move to another entry and its IC50.
Q. Param item = COC(=O)N(C)c1ccc2c(-c3nc(N[C@H]4CCCNC4)ncc3C(F)(F)F)c[nH]c2c1OC(F)F ; retrieve measured IC50.
A. > 500 nM

* * *

- Test system: ovarian cancer cells A2780
- ASSAY_NOTES: Cell anti-proliferation experiment, MTT (Table 2)
- Format: cell-based, human
- CONDITION_DESCRIPTION: Homo sapiens, A2780, 72 h, incubate 3 days
Field: label. Allowed values: satisfied (IC50 < 9 nM) or not satisfied (IC50 >= 9 nM).

COC(=O)Nc1ccc2c(-c3nc(N[C@H]4CCCNC4)ncc3C(F)(F)F)c[nH]c2c1C [Example T-52]	not satisfied

Q. Hi there! Is IC50 for COC(=O)Nc1ccc2c(-c3nc(N[C@H]4CCC5(CC5)NC4)ncc3C(F)(F)F)c[nH]c2c1OCC(F)(F)F [Example T-150] below 9 nM, do you know?
A. not satisfied

Q. Hi there! Is IC50 for COC(=O)Nc1ccc2c(-c3nc(N[C@H]4CCC5(CC5)NC4)ncc3C(F)(F)F)c[nH]c2c1Cl [Example T-81] below 9 nM, do you know?
A. satisfied

* * *

Quick reference for pIC50 among some molecules
- ASSAY_TARGET: CDK7/Cyclin H/MAT1 kinase (Homo sapiens (Human), UniProt P50613)
- ASSAY_NOTES: Enzyme activity test, mobility shift assay (Table 1)
- Type: biochemical
- CONDITION_DESCRIPTION: 2 mM ATP; pre-incubated 0 and 60 minutes
pIC50: −log10 of the molar value.

Here's what some known entries look like.
COC(=O)Nc1ccc2c(-c3nc(N[C@H]4CC[C@@H](C)NC4)ncc3C(F)(F)F)c[nH]c2c1OC	6.30 to 7.30
COC(=O)Nc1ccc2c(-c3nc(N[C@@H]4CCC[C@H]4N)ncc3C(F)(F)F)c[nH]c2c1Br	6.30 to 7.30
COC(=O)Nc1ccc2c(-c3nc(N[C@H]4CCCN(C)C4)ncc3C(F)(F)F)c[nH]c2c1C(F)(F)F [Example T-172]	> 7.30
COC(=O)Nc1ccc2c(-c3nc(N[C@H]4CCC5(CC5)NC4)ncc3C(F)(F)F)c[nH]c2c1OC	> 7.30
COC(=O)Nc1ccc2c(-c3nc(N[C@H]4CCC(C)(C)NC4)ncc3Cl)c[nH]c2c1C(F)(F)F	> 7.30
COC(=O)Nc1ccc2c(-c3nc(N[C@H]4CCCNC4)ncc3Cl)c[nH]c2c1OC(F)(F)F	> 7.30

Q. Param item = COC(=O)Nc1ccc2c(-c3nc(N[C@H]4CCCNC4)ncc3C(F)(F)F)c[nH]c2c1C(F)F ; retrieve measured pIC50.
A. > 7.30

Q. Param item = COC(=O)Nc1ccc2c(-c3nc(N[C@H]4CCC5(CC5)NC4)ncc3C(F)(F)F)c[nH]c2c1C(F)(F)F ; retrieve measured pIC50.
A. > 7.30

Q. Param item = COC(=O)N(C)c1ccc2c(-c3nc(N[C@H]4CCCNC4)ncc3C(F)(F)F)c[nH]c2c1C(F)F ; retrieve measured pIC50.
A. > 7.30

Q. Param item = CCOc1c(NC(=O)OC)ccc2c(-c3nc(N[C@H]4CCCNC4)ncc3C(F)(F)F)c[nH]c12 ; retrieve measured pIC50.
A. > 7.30

Data provenance is patent US20230295130A1.
